All figures here come from the nanobody polyreactivity screen of Harvey et al. (2022).

- procedure summary: yeast display, Sf9 membrane polyspecificity reagent, FACS + sequencing; frameworks hold sequencing errors
reported endpoint: polyreactivity (PSR sort gate)

QVQLVESGGGLVQAGGSLRLSCAASGSIFWSYAMGWYRQAPGKERELVAAITWGCGSTNYADSVKGRFTISRDNAKNTVYLQMNSLIAEDTGVYYCATDNRYVVDYDYWGQGTQVTVSS
high polyreactivity
LVQLVESGGGLVQAGGSLRLSCAASGYIIGFYVMGWYRQAPGKERELVAVIDYGSDNTYYADSVLGRYTISRDNAKNTVYLQMNSLKPEETAVYYCAAEWYKSNYYDYDTWGQGTQVTVSS
high polyreactivity

###

- procedure summary: yeast display, Sf9 membrane polyspecificity reagent, FACS + sequencing; frameworks hold sequencing errors
reported endpoint: polyreactivity (PSR sort gate)

QVQLVESGGGLVQAGGSLRLSCAASGSIFYQYAMGWYRQAPGKERELVAAISQNGGRTYYADSVKGRFTISRDNAKNKVYLQMNRLKPEDTAVYYFAARHAPTRYGYWGQGTEVTVSS
high polyreactivity
QVQLVESGGGLVQAGGSLRLSCAASGIIFIVNAMGWYRQAPGKERELVATISSSGDITRYADSVKGRFTISRDNAKYTVYLQMNSLKPEDTAVYYCAARLWTGYWGTAHPRYDYWGQGTQVTVSS
high polyreactivity
